# Tested on: OVCAR-8 ovarian
# ASSAY PROTOCOL: NCI tumour cell line growth inhibition, 48 h
RECORDED METRIC: GI50

>>> df
                                   compound  meas_value
0  CC(C)[C@@]12C[C@@H](OC(=O)[C@H]3CO3)[C@@](C)(O1)[C@@H]1CC[C@@H](C)[C@H]1[C@@H]2OC(=O)/C=C/c1ccccc1    0.434 µM
1  COc1ccccc1-n1c(-c2cc(O)ccc2C)cn2c3c(=O)[nH]c(=O)n(C)c3nc12     10.9 µM
2  CCCCCC(O)C1C(=O)OC(C)C(O)/C=C/C=C/C=C/C=C\C=C(\C)C(O)CC(O)CC(O)CC(O)CC(O)CC(O)CC1O (centres undefined)    > 100 µM
3  O=C1C(Br)=CC2(C=C1Br)CCN=c1c2c(O)c2nc3ccccc3c3ccnc1c23    0.918 µM
4  CN(C)c1ccc(N=Cc2c([O-])ccc3ccccc23)cc1.[C-]#[O+].[C-]#[O+].[Ir]     28.8 µM
5  CCOC(=O)c1sc2nc3sc(N=Nc4ccc(Cl)cc4)c(O)n3c(=S)c2c1C     29.4 µM
6  COc1ccc(Nn2c(SCC(=O)Nc3nc(-c4ccc(Cl)cc4)cs3)nc(C)c2C)cc1     4.82 µM
7  O=C(OCc1ccccc1)N1CCN(/[N+]([O-])=N/Oc2ccc([N+](=O)[O-])cc2[N+](=O)[O-])CC1     31.5 µM
8      Cc1cc2cc3cc(C)c(N(C)C)cc3nc2cc1N(C)C     2.83 µM

---

# Tested on: OVCAR-5 ovarian
# ASSAY PROTOCOL: NCI tumour cell line growth inhibition, 48 h
RECORDED METRIC: TGI

>>> print(df.to_string())
                                    molecule  meas_value
 0  O=C(O)C1C(C(=O)Nc2ccc3c(c2)Cc2ccccc2-3)C2(Cl)C(Cl)=C(Cl)C1(Cl)C2(Cl)Cl (stereo not given)     38.6 µM
 1   CC(=O)Nc1ccc(Sc2ccc([N+](=O)[O-])o2)cc1      5.9 µM
 2  O=C(O)C1CCCN1Cc1cc2ccccc2c2ccccc12 (stereo not given)    > 100 µM
 3  COc1nc(SC)nc2c1cnn2C1OC(C(O)CO)C(OC)C1O (stereo not given)    > 100 µM
 4  N#CCCN(CCC#N)c1ccc(C(N=Nc2ccccc2)=Nc2ccccc2)cc1    > 100 µM
 5          Cc1cc(N(CCC#N)S(C)(=O)=O)ccc1C=O    > 100 µM
 6  CC(C)(C)NN=C1C(C)(C)C(=NNC(C)(C)C)C1(C)C    > 100 µM
 7  NC(CSC(c1ccccc1)(c1ccccc1)c1ccc(Cl)cc1)C(=O)O (stereo not given)   > 63.9 µM
 8  CCC[CH2][Sn]([CH2]CCC)([O]C(=O)c1cc(F)cc(F)c1)[O]C(=O)c1cc(F)cc(F)c1     2.96 µM
 9  O=C(CC1(O)C(=O)Nc2ccccc21)c1ccccc1Cl (stereo not given)    > 100 µM
10  COc1ccc2nc3ccc(OC)cc3c(S(=O)(=O)Cc3ccc([N+](=O)[O-])cc3)c2c1    > 100 µM
11  Cc1cc(C)nc(NS(=O)(=O)c2ccc(Nc3c4ccccc4nc4c(C(=O)NCCCN(CCO)CCO)cccc34)cc2)n1    > 100 µM
12     CC(=O)C1CC=C(C)CC1 (stereo not given)    > 100 µM
13  CC(C)(C)N(Cc1ccc2c(c1)OCO2)C(=O)/C=C\S(=O)c1ccccc1 (stereo not given)     25.1 µM
14        N#Cc1c(-c2ccc(Cl)cc2)n(O)c2ccccc12    > 100 µM
